This collection of values is drawn from patent US8158668B2.

- Assayed system: mouseTAAR1 (Mus musculus, UniProt Q923Y8)
- Construct: expressed in transfected cells; host or cells: HEK293 (ATCC #CRL-1573), stably transfected with pIRESneo2 expression plasmid; membrane preparation
- Sequence (Q923Y8 whole entry): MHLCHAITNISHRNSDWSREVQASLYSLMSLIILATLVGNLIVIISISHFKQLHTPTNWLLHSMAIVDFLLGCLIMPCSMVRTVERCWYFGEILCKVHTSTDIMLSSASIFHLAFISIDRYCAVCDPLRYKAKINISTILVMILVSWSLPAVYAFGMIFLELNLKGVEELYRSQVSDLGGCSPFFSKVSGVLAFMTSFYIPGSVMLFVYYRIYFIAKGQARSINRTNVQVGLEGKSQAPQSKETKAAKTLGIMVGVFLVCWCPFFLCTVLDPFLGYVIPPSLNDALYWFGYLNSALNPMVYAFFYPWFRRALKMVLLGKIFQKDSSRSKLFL
- Procedure text: Radioligand binding on membranes of HEK293 cells stably expressing TAAR1
- Condition notes: mouseTAAR1; competition with [3H]-rac-2-(1,2,3,4-tetrahydro-1-naphthyl)-2-imidazoline, 4° C., 30 min; read-out: Ki
In this section we review reported Ki values for a set of compounds.
Measure name: Ki

1. Cc1cccc(Cc2c[nH]cn2)c1C [Example 25, 4-(2,3-Dimethyl-benzyl)-1H-imidazole, reference compound]: 43 nM
2. CCc1cc(OCc2ccccc2)cc(CC)c1Cc1cnc[nH]1: 11.7 nM

---

- Assayed system: mouseTAAR1 (Mus musculus, UniProt Q923Y8)
- Construct: expressed in transfected cells; host or cells: HEK293 (ATCC #CRL-1573), stably transfected with pIRESneo2 expression plasmid; membrane preparation
- Procedure text: Radioligand binding on membranes of HEK293 cells stably expressing TAAR1
pKi: −log10 of the molar value.
In this section we review reported pKi values for a set of compounds.
Measure name: pKi

1. CCc1cccc(C)c1Cc1cnc[nH]1 [Example 57, 4-(2-Ethyl-6-methyl-benzyl)-1H-imidazole]: 7.97
2. c1ccc2cc(Cc3c[nH]cn3)ccc2c1 [Example 39, 4-Naphthalen-2-ylmethyl-1H-imidazole]: 7.54
3. CCc1ccc(Oc2ccccc2)c(CC)c1Cc1cnc[nH]1 [Example 80]: 7.86
4. CCc1cccc(C2CC2)c1Cc1cnc[nH]1 [Example 58]: 8.01
5. CCOc1cc(CC)c(Cc2cnc[nH]2)c(CC)c1 [Example 72]: 7.90
6. CC(c1ccccc1)c1cnc[nH]1 (racemic) [Example 14, rac-4-(1-Phenyl-ethyl)-1H-imidazole]: 8.40
7. Brc1cc(Cc2c[nH]cn2)c2occc2c1 [Example 49]: 9.05
8. Cc1cc(C)c(C)c(Cc2cnc[nH]2)c1C [Example 31]: 7.80
9. Cc1ccc2ccccc2c1Cc1cnc[nH]1 [Example 572]: 8.25
10. Fc1cccc(Cl)c1Cc1cnc[nH]1 [Example 12]: 7.72
11. CCc1cccc(F)c1Cc1cnc[nH]1 [Example 78, 4-(2-Ethyl-6-fluoro-benzyl)-1H-imidazole]: 7.75
12. c1cc(Cc2cnc[nH]2)c2occc2c1 [Example 51, 4-Benzofuran-7-ylmethyl-1-imidazole]: 8.03
13. CCc1cccc(Cl)c1Cc1cnc[nH]1 [Example 61, 4-(2-Chloro-6-ethyl-benzyl)-1H-imidazole]: 7.94
14. CC(c1cnc[nH]1)c1ccccc1F (racemic) [Example 2]: 7.92
15. c1ccc(-c2cccc(Cc3cnc[nH]3)c2)cc1 [Example 71, 4-Biphenyl-3-ylmethyl-1H-imidazole]: 7.41
16. CCC(c1cnc[nH]1)c1ccccc1F (racemic) [Example 6]: 7.66
17. Brc1ccccc1Cc1cnc[nH]1 [Example 27, 4-(2-Bromo-benzyl)-1H-imidazole]: 7.47
18. CC(C)(c1ccccc1)c1cnc[nH]1 [Example 41]: 7.34
19. Cc1cccc(C)c1Cc1cnc[nH]1 [Example 29, 4-(2,6-Dimethyl-benzyl)-1H-imidazole]: 8.40
20. CCOc1ccc(CC)c(Cc2cnc[nH]2)c1CC [Example 74]: 8.43
21. c1ccc(-c2ccccc2Cc2cnc[nH]2)cc1 [Example 67, 4-Biphenyl-2-ylmethyl-1H-imidazole]: 7.56
22. Clc1cccc(Cl)c1Cc1cnc[nH]1 [Example 33, 4-(2,6-Dichloro-benzyl)-1H-imidazole]: 8.52
23. CCC(c1cnc[nH]1)c1cccc(F)c1F (racemic) [Example 20]: 7.74
24. CCc1cc(Oc2ccccc2)cc(CC)c1Cc1cnc[nH]1 [Example 79]: 8.25
25. CCC(c1cccc(F)c1)c1cnc[nH]1 (racemic) [Example 7]: 7.49
26. C[C@@H](c1cnc[nH]1)c1cccc(F)c1F [Example 46]: 8.11
27. CC(c1cnc[nH]1)c1cccc(F)c1F (racemic) [Example 17]: 7.96
28. CCc1cccc(CC)c1Cc1cnc[nH]1 [Example 26, 4-(2,6-Diethyl-benzyl)-1H-imidazole]: 8.00
29. CC(c1cccc(F)c1)c1cnc[nH]1 (racemic) [Example 15]: 7.72
30. CCCC(c1ccccc1)c1c[nH]cn1 (racemic) [Example 1, rac-4-(1-Phenyl-butyl)-1H-imidazole]: 7.31
